Data provenance is paper PMC9739882.

System: HT-29 cells
Experiment: MTT antiproliferative assay in HT-29 cells
Format: cell-based, human
Details: Homo sapiens, HT-29; antiproliferative, MTT, 72 h, mean ± SD (n = 3); read-out: IC50 HT-29 (72 h)
OBSERVATION TYPE: IC50 (µM)

Take a look at these entries with their results.
MOLECULE: Oc1ccc(CCc2cc(O)cc(O)c2)cc1 [DHRSV, Dihydroresveratrol]
TARGET DESC: HT-29 cells
OBSERVATION TYPE: IC50
RECORDED VALUE: 69
//
MOLECULE: Oc1ccc(CCc2ccccc2)cc1
TARGET DESC: HT-29 cells
OBSERVATION TYPE: IC50
RECORDED VALUE: 96.7
//
MOLECULE: Oc1ccc(CCc2cccc(O)c2)cc1 [LUNU, 3-(4-hydroxyphenethyl)phenol]
TARGET DESC: HT-29 cells
OBSERVATION TYPE: IC50
RECORDED VALUE: 53.2
//
MOLECULE: Oc1cccc(CCc2ccccc2)c1
TARGET DESC: HT-29 cells
OBSERVATION TYPE: IC50
RECORDED VALUE: 81.7
//
MOLECULE: COc1cc(/C=C/c2ccc(O)cc2)cc(OC)c1 [PTERO, 3,5-dimethoxy, 4′-hydroxy-trans-stilbene]
TARGET DESC: HT-29 cells
OBSERVATION TYPE: IC50
RECORDED VALUE: 37.9
//
MOLECULE: Oc1ccc(/C=C/c2cc(O)cc(O)c2)cc1 [RSV, 3,5,4′-trihydroxy-trans-stilbene]
TARGET DESC: HT-29 cells
OBSERVATION TYPE: IC50
RECORDED VALUE: 59.1

P = Oc1ccc(C=Cc2cccc(O)c2)cc1 [DHST, 3-(4-hydroxystyryl)phenol]
Q = Oc1cc(O)cc(CCc2ccccc2)c1 [DHP, 3-hydroxy-(5-phenethyl)phenol]
Compare P and Q and name the one whose reported IC50 is smaller. // output: label of the selected item
P
(P: 48.3 µM, Q: 82.4 µM)
